Origin of the recorded values: PubChem BioAssay (NCATS)

Test system: AA1029
Assay: qHTS profiling for inhibitors of Plasmodium falciparum proliferation (AID 504749); note: nearly all actives have a fitted effect of over 60% in size
Settings: P. falciparum in erythrocytes, SYBR Green DNA, 72 h; series mostly up to 28.7 µM
Inconclusive results are not listed. The source made the active and inactive calls. Calls come from the whole dose curve; as a rule, active = well fitted inhibition curve with a large enough effect; inconclusive = small, poorly fitted or top-dose-only effect; inactive = flat fitted curve, though single readings scatter.
Labels: 1 = active, 0 = inactive

>  <Compound>
CC1=CCC2CC1C2(C)C (configuration not stated)

>  <Cat>
0

$$$$
>  <Compound>
NC(=O)Oc1ccc(Cc2ccccc2)cc1

>  <Cat>
0

$$$$
>  <Compound>
CCCCCCCCCCCCCCCCCC(=O)OCC(C)O (configuration not stated)

>  <Cat>
0

$$$$
>  <Compound>
OCC(O)CO

>  <Cat>
0

$$$$
>  <Compound>
CC(C)O

>  <Cat>
0

$$$$
>  <Compound>
CCc1ccc(S(=O)(=O)O)cc1

>  <Cat>
0

$$$$
>  <Compound>
NCCN

>  <Cat>
0

$$$$
>  <Compound>
O=C(O)c1ccc(OCCn2ccnc2)cc1

>  <Cat>
0

$$$$
>  <Compound>
CC(C)CCCC(C)NC(C)C (configuration not stated)

>  <Cat>
0

$$$$
>  <Compound>
N=C(N)n1cccn1

>  <Cat>
0

$$$$
>  <Compound>
CC(C)CCC[C@@H](C)[C@H]1CC[C@H]2[C@@H]3CC=C4C[C@@H](O)CC[C@]4(C)[C@H]3CC[C@]12C

>  <Cat>
0

$$$$
>  <Compound>
COC1=C(OC)C(=O)C(C/C=C(\C)CC/C=C(\C)CC/C=C(\C)CC/C=C(\C)CC/C=C(\C)CC/C=C(\C)CC/C=C(\C)CC/C=C(\C)CC/C=C(\C)CCC=C(C)C)=C(C)C1=O

>  <Cat>
0

$$$$
>  <Compound>
CC(=O)[O][Al][O]C(C)=O

>  <Cat>
0

$$$$
>  <Compound>
FCOC(C(F)(F)F)C(F)(F)F

>  <Cat>
0

$$$$
>  <Compound>
C[C@H](CCC(=O)O)[C@H]1CC[C@H]2[C@@H]3CC[C@@H]4C[C@H](O)CC[C@]4(C)[C@H]3C[C@H](O)[C@]12C

>  <Cat>
0

$$$$
>  <Compound>
COc1cc(S(C)=O)ccc1-c1nc2ncccc2[nH]1 (configuration not stated)

>  <Cat>
0

$$$$
>  <Compound>
O=C(OCc1ccccc1)c1cccnc1

>  <Cat>
0

$$$$
>  <Compound>
CC(C)(C)c1ccc2c(S(=O)(=O)O)c(C(C)(C)C)ccc2c1

>  <Cat>
0

$$$$
>  <Compound>
CCCC(=O)O

>  <Cat>
0

$$$$
>  <Compound>
NC(=S)N=Nc1ccc(NN=C(N)N)cc1

>  <Cat>
1

$$$$
>  <Compound>
Nc1ncnc2c1ncn2[C@H]1CC[C@@H](CO)O1

>  <Cat>
0

$$$$
>  <Compound>
CC(=O)Nc1ccc(OC(=O)c2ccccc2O)cc1

>  <Cat>
0

$$$$
>  <Compound>
CC1C(=O)CC2C3(C)CCC2(C(C)C(=O)O)C(=O)C13 (configuration not stated)

>  <Cat>
0

$$$$
>  <Compound>
CN1C(=O)OC(C)(C)C1=O

>  <Cat>
0

$$$$
>  <Compound>
O=[N+]([O-])c1c(Cl)cccc1-c1c[nH]cc1Cl

>  <Cat>
0

$$$$
>  <Compound>
ClC(Cl)Cl

>  <Cat>
0

$$$$
>  <Compound>
CCC(=O)c1ccc2c(c1)N(CCCN1CCN(CCO)CC1)c1ccccc1S2

>  <Cat>
1

$$$$

====

Tested on: CP185
Assay: qHTS profiling for inhibitors of Plasmodium falciparum proliferation (AID 504749); note: nearly all actives have a fitted effect of over 60% in size
Conditions: P. falciparum in erythrocytes, SYBR Green DNA, 72 h; series mostly up to 28.7 µM
Results filed as inconclusive are left out. Active and inactive are the calls of the source. Calls come from the whole dose curve; as a rule, active = well fitted inhibition curve with a large enough effect; inconclusive = small, poorly fitted or top-dose-only effect; inactive = flat fitted curve, though single readings scatter.
Outcomes: 1 (yes) for active, 0 (no) for inactive

>  <Molecule>
NCC(O)CC(=O)O (stereo not drawn)

>  <Cat>
0 (no)

$$$$
>  <Molecule>
CNC(=O)C[C@@H](N)C(=O)N[C@@H](C(=O)N[C@@H]1C(=O)N2[C@@H]1SC(C)(C)[C@@H]2C(=O)O)c1ccc(O)cc1

>  <Cat>
0 (no)

$$$$
>  <Molecule>
OC[C@H]1O[C@@H]2O[C@H]3[C@H](O)[C@@H](O)[C@@H](O[C@H]4[C@H](O)[C@@H](O)[C@@H](O[C@H]5[C@H](O)[C@@H](O)[C@@H](O[C@H]6[C@H](O)[C@@H](O)[C@@H](O[C@H]7[C@H](O)[C@@H](O)[C@@H](O[C@H]1[C@H](O)[C@H]2O)O[C@@H]7CO)O[C@@H]6CO)O[C@@H]5CO)O[C@@H]4CO)O[C@@H]3CO

>  <Cat>
0 (no)

$$$$
>  <Molecule>
O=C(Nc1ccc(O)cc1)c1ccccc1O

>  <Cat>
0 (no)

$$$$
>  <Molecule>
Cc1ncc[nH]1

>  <Cat>
0 (no)

$$$$
>  <Molecule>
CCCCCCCCCC(=O)NO

>  <Cat>
0 (no)

$$$$
>  <Molecule>
CC1=C(/C=C/C(C)=C/C=C/C(C)=C/C(=O)Oc2c(C)c(C)c3c(c2C)CC[C@@](C)(CCC[C@H](C)CCC[C@H](C)CCCC(C)C)O3)C(C)(C)CCC1

>  <Cat>
0 (no)

$$$$
>  <Molecule>
COc1cc(NCCCC(C)N)c2ncccc2c1 (stereo not drawn)

>  <Cat>
1 (yes)

$$$$

====

Experiment: Cell Viability - LYMP2-013 (AID 970);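 note: cells exposed to compound for 24 h at 37 °C; nearly all actives have a fitted effect of over 55% in size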
Settings: LYMP2-013 lymphoblastoid cells viability; series mostly up to 92.2 µM
Inconclusive results are not listed. Calls of active or inactive are those of the source. Calls follow the shape of the dose curve; as a rule, active = well fitted cell-killing curve with a large enough effect; inconclusive = small, poorly fitted or top-dose-only effect; inactive = flat fitted curve, though single readings scatter.
Labels: active, inactive

>  <Molecule>
O.O.O.O.O.O.O.O=S(=O)([O-])[O-].[Co+2]

>  <Cat>
inactive

$$$$
>  <Molecule>
COC(=O)c1ccccc1O

>  <Cat>
inactive

$$$$
>  <Molecule>
CCCCC

>  <Cat>
inactive

$$$$
>  <Molecule>
Cc1ncc[nH]1

>  <Cat>
inactive

$$$$
>  <Molecule>
OCc1ccccc1

>  <Cat>
inactive

$$$$
>  <Molecule>
CC[C@H]1OC(=O)[C@H](C)[C@@H](O[C@H]2C[C@@](C)(OC)[C@@H](O)[C@H](C)O2)[C@H](C)[C@@H](O[C@@H]2O[C@H](C)C[C@H](N(C)C)[C@H]2O)[C@](C)(O)C[C@@H](C)CN(C)[C@H](C)[C@@H](O)[C@]1(C)O

>  <Cat>
inactive

$$$$
>  <Molecule>
ClC(Cl)Cl

>  <Cat>
inactive

$$$$
>  <Molecule>
O=c1n(CC2CO2)c(=O)n(CC2CO2)c(=O)n1CC1CO1 (centres undefined)

>  <Cat>
active

$$$$
>  <Molecule>
OC[C@H]1O[C@@H]2O[C@H]3[C@H](O)[C@@H](O)[C@@H](O[C@H]4[C@H](O)[C@@H](O)[C@@H](O[C@H]5[C@H](O)[C@@H](O)[C@@H](O[C@H]6[C@H](O)[C@@H](O)[C@@H](O[C@H]7[C@H](O)[C@@H](O)[C@@H](O[C@H]1[C@H](O)[C@H]2O)O[C@@H]7CO)O[C@@H]6CO)O[C@@H]5CO)O[C@@H]4CO)O[C@@H]3CO

>  <Cat>
inactive

$$$$

====

Assay: Drug repurposing screens with cells derived from glioblastoma tumor samples (AID 1345199); note: % is set by controls: 0 for no effect and ±100 for the full control effect; nearly all actives have a fitted effect of over 40% in size
Settings: GBM patient neurospheres viability, ATP luminescence, 48 h; at 45.9 µM (top of the series); tumour line B
Procedure: CD133+ cells were isolated from GBM patient biopsies and cultured as neurospheres. Neurospheres from four patients were used to screen the NCATS pharmaceutical collection (NPC) library of approved drugs and bioactive compounds. […] The neurospheres were incubated with drugs for 48 hours in 1536-well format, then assayed with an ATP content cell viability assay. […]
Results filed as inconclusive are left out.

>  <Compound>
O=P(O)(O)OC[C@H]1O[C@](O)(COP(=O)(O)O)[C@@H](O)[C@@H]1O

>  <Value unit>
%

>  <activity, negative = cell killing>
-4.16

$$$$
>  <Compound>
CCCCCCCCCCCCCCCCCC(=O)OCC(C)O (configuration not stated)

>  <Value unit>
%

>  <activity, negative = cell killing>
-18.7

$$$$
>  <Compound>
O=C(/C=C/c1cccc(F)c1)NC1CC1

>  <Value unit>
%

>  <activity, negative = cell killing>
-18.1

$$$$
>  <Compound>
CS(=O)(=O)c1ccc([C@@H](O)[C@@H](COC(=O)CN)NC(=O)C(Cl)Cl)cc1

>  <Value unit>
%

>  <activity, negative = cell killing>
-20.1

$$$$
>  <Compound>
Cc1ccc(S(=O)(=O)NC(=O)N[C@@H](C)Cc2ccccc2)cc1

>  <Value unit>
%

>  <activity, negative = cell killing>
-12

$$$$
>  <Compound>
O[C@@H]([C@H](O)[C@H](O)CBr)[C@H](O)CBr

>  <Value unit>
%

>  <activity, negative = cell killing>
-6.4

$$$$
>  <Compound>
CCC(Cc1c(I)cc(I)c(O)c1I)C(=O)O (configuration not stated)

>  <Value unit>
%

>  <activity, negative = cell killing>
-7.21

$$$$
>  <Compound>
CC(=O)O[C@@H]1CC2CCC1(C)C2(C)C (some centres not stated)

>  <Value unit>
%

>  <activity, negative = cell killing>
-4.03

$$$$
>  <Compound>
CCCCC[C@H](O)/C=C/[C@@H]1[C@H]2C/C(=C/CCCC(=O)O)O[C@H]2C[C@H]1O

>  <Value unit>
%

>  <activity, negative = cell killing>
-2.96

$$$$
>  <Compound>
CC(O)[C@H]1CC[C@H]2[C@@H]3CC[C@@H]4C[C@@H](O)CC[C@]4(C)[C@H]3CC[C@]12C (some centres not stated)

>  <Value unit>
%

>  <activity, negative = cell killing>
-13.1

$$$$
>  <Compound>
C=C1CC[C@H](O)CC1=C/C=C1\CCC[C@]2(C)[C@@H]([C@H](C)CC[C@@H](O)C(C)(C)O)CC[C@@H]12

>  <Value unit>
%

>  <activity, negative = cell killing>
-20.7

$$$$
>  <Compound>
CCC(O)c1ccccc1 (configuration not stated)

>  <Value unit>
%

>  <activity, negative = cell killing>
-1.17

$$$$
>  <Compound>
COc1cc2c(cc1OC)[C@@H](c1ccccc1)CN(C)CC2

>  <Value unit>
%

>  <activity, negative = cell killing>
-22

$$$$
>  <Compound>
O=C(O)c1ccc(NC2OC[C@@H](O)[C@H](O)[C@H]2O)cc1 (some centres not stated)

>  <Value unit>
%

>  <activity, negative = cell killing>
-2.93

$$$$
>  <Compound>
[O]=[Bi][O][Bi]=[O]

>  <Value unit>
%

>  <activity, negative = cell killing>
-6.82

$$$$
>  <Compound>
CC/C=C\C/C=C\C/C=C\C/C=C\C/C=C\C/C=C\CCC(=O)O

>  <Value unit>
%

>  <activity, negative = cell killing>
-3.27

$$$$
>  <Compound>
OCCCNc1ccccc1

>  <Value unit>
%

>  <activity, negative = cell killing>
1.67

$$$$
>  <Compound>
CC(C)(C)CC(C)(C)c1ccc(OCCO)cc1

>  <Value unit>
%

>  <activity, negative = cell killing>
-26.2

$$$$
>  <Compound>
NC[C@@H]1CC[C@@H](N)[C@@H](O[C@H]2[C@H](O)[C@@H](O[C@H]3O[C@H](CO)[C@@H](O)[C@H](N)[C@H]3O)[C@H](N)C[C@@H]2N)O1

>  <Value unit>
%

>  <activity, negative = cell killing>
0.351

$$$$
>  <Compound>
CCOC(=O)[C@H](CS)NCCN[C@@H](CS)C(=O)OCC

>  <Value unit>
%

>  <activity, negative = cell killing>
-15.2

$$$$
>  <Compound>
N[C@H](CC(=O)O)C(=O)O

>  <Value unit>
%

>  <activity, negative = cell killing>
13.2

$$$$
>  <Compound>
CCCCCCCCCCCCCCCCCCCCCC(=O)Nc1ccn([C@@H]2O[C@H](CO)[C@@H](O)[C@@H]2O)c(=O)n1

>  <Value unit>
%

>  <activity, negative = cell killing>
-14.5

$$$$
